- MEASUREMENT NOTES: A427 NSCLC subcutaneous xenograft model
- Assay type: in vivo, mouse
- REPORTED CONDITIONS: female, CB17/Icr-Prkdc(scid)/IcrCrl, mouse, in vivo; 26 at 60 mg/kg q7d IV, single agent
MEASURED PARAMETER: AUC
Please report the result as a number followed by the unit.

Given COc1c(OCC2CCOCC2)cc(N2C[C@@H](C)n3c(c(CCCOc4cc(C)c(Cl)c(C)c4)c4ccc(Cl)c(-c5c(C)nc(C)nc5C)c43)C2=O)c2c1cc(C(=O)O)n2C [Compound 26] , state its recorded AUC. 552 µM·h

###

For each record, write down the corresponding AUC/Dose.
- MEASUREMENT NOTES: Mouse IV PK
- REPORTED CONDITIONS: mouse IV, dosed at 25 mg/kg, dose normalized
Marks after values point to notes of the source that are not given here.

Given COCCOc1cc(N2C[C@@H](C)n3c(c(CCCOc4cc(C)c(Cl)c(C)c4)c4ccc(Cl)c(-c5c(C)ncnc5C)c43)C2=O)c2c(cc(C(=O)O)n2C)c1OC , state its recorded AUC/Dose. 290^c nM*h/mpk

Given COCCOc1cc(N2C[C@@H](C)n3c(c(CCCOc4cc(C)c(Cl)c(C)c4)c4ccc(Cl)c(-c5c(C)nc(C)nc5C)c43)C2=O)c2c(cc(C(=O)O)n2C)c1OC , state its recorded AUC/Dose. 334^c nM*h/mpk

Given COc1c(OC[C@H]2CCCO2)cc(N2C[C@@H](C)n3c(c(CCCOc4cc(C)c(Cl)c(C)c4)c4ccc(Cl)c(-c5c(C)ncnc5C)c43)C2=O)c2c1cc(C(=O)O)n2C , state its recorded AUC/Dose. 1476^c nM*h/mpk

Given COc1cc(N2C[C@@H](C)n3c(c(CCCOc4cc(C)c(Cl)c(C)c4)c4ccc(Cl)c(-c5c(C)nn(C)c5C)c43)C2=O)c2c(cc(C(=O)O)n2C)c1OC , state its recorded AUC/Dose. 252 nM*h/mpk

###

- MEASUREMENT NOTES: Mouse IV PK
- REPORTED CONDITIONS: mouse, plasma, iv, 25 mg/kg
MEASURED PARAMETER: Vd

Given COc1c(OCC2CCOCC2)cc(N2C[C@@H](C)n3c(c(CCCOc4cc(C)c(Cl)c(C)c4)c4ccc(Cl)c(-c5c(C)nc(C)nc5C)c43)C2=O)c2c1cc(C(=O)O)n2C , state its recorded Vd. < 0.1 L/kg

###

- MEASUREMENT NOTES: Mouse IV PK
- REPORTED CONDITIONS: mouse, plasma, iv, 5 mg/kg
MEASURED PARAMETER: clearance (mL/min/kg)
Express your answer in mL/min/kg, writing the number without its unit.

Given COc1c(O[C@H]2CCOC2)cc(N2C[C@@H](C)n3c(c(CCCOc4cc(C)c(Cl)c(C)c4)c4ccc(Cl)c(-c5c(C)nc(C)nc5C)c43)C2=O)c2c1cc(C(=O)O)n2C , state its recorded clearance. 19

###

MEASURED PARAMETER: pKi
Notebook: values listed as pKi are -log10 of the concentration (mol/L).

Field: pKi (Bcl-2 (Homo sapiens, UniProt P10415)). Entry: COc1c(OCC2CCOCC2)cc(N2C[C@@H](C)n3c(c(CCCOc4cc(C)c(Cl)c(C)c4)c4ccc(Cl)c(-c5c(C)nc(C)nc5C)c43)C2=O)c2c1cc(C(=O)O)n2C [Compound 26] 5.74

Every entry's value here was drawn from paper PMC11345828.
